Numbers sourced from the Deep4Chem optical property database.

test: solvent given as SMILES; settings: in CO
Label scheme for absorption maximum: lower than 400 nm is Not met, 400 nm and above is Met.

Example entries begin here.
• CN(C)c1ccc2nc(-c3ccc(C(=O)O)cc3)sc2c1 = Not met
• CCOC(=O)C1=CNC=C(C(=O)OCC)C1c1ccccc1 = Not met

Request: Threshold query (absorption maximum >= 400 nm) on CCCCCCCCN1c2ccc(C#Cc3cc(C(F)(F)F)cc(C(F)(F)F)c3)cc2Sc2cc(C=O)ccc21
Result: Not met

Request: Check if absorption maximum >= 400 nm (inclusive). Item: O=C1C=C(Nc2ccc([N+](=O)[O-])cc2)C(=O)c2ccccc21
Result: Met

Request: Given the entry COc1ccccc1-c1nc(-c2ccccc2)c(-c2ccccc2)[nH]1 , answer whether its absorption maximum meets or surpasses 400 nm.
Result: Not met

Request: Is it the case that Oc1ccc(/N=C/c2ccccc2Oc2ccccc2)cc1 has absorption maximum reaching or exceeding 400 nm?
Result: Not met
